Entries annotated with measured rIP
Tested On: CD22 (Homo sapiens)
Construct: The soluble CD22 protein was expressed in the CHO-Lec1 cell line; made in house; host or cells: CHO-Lec1
Sequence (P20273 20-687 limits assumed): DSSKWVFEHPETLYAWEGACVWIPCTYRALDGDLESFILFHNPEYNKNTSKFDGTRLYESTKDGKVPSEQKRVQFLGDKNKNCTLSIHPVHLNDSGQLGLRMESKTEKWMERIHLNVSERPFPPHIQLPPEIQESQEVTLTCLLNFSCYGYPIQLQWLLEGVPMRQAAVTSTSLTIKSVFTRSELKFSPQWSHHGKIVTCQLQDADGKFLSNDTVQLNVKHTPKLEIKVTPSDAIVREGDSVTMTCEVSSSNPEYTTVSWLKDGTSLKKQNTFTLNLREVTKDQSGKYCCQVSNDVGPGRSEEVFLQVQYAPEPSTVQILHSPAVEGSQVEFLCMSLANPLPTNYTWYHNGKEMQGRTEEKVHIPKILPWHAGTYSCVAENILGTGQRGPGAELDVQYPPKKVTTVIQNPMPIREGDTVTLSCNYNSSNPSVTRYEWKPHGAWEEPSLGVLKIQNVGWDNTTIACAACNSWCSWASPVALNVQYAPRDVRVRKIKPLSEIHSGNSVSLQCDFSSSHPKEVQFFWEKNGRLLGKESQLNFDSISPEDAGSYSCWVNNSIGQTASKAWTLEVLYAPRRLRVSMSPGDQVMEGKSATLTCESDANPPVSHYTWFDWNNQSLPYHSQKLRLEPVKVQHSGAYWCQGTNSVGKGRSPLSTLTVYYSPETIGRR
Assay Info: ELISA-based inhibition assay: inhibition of binding of soluble CD22 to immobilized IgM
Setup Conditions: Table IV; relative to reference compound 66 co-tested in the same assay (rIP = 1)
Experimental: The biological activity of the substances was determined in an ELISA-based inhibition assay as described in “Eur. J. Immunol. 2012, 42, 2792-2802”. The sialic acid derivatives of the formula (I) inhibit the binding of soluble CD22 to immobilized IgM in proportion to their affinity for CD22. The soluble CD22 protein was expressed in the CHO-Lec1 cell line and isolated as described by “Eur. J. Immunol. 2012, 42, 2792-2802”. […] The increase in affinity is reported as rIP (relative inhibitory affinity).
Measurement Name: rIP

- Chemical String: "CC(=O)N[C@H]1[C@H]([C@H](O)[C@H](O)CNC(=O)c2cccc3ccccc23)O[C@@](OCCCCCC(=O)[O-])(C(=O)[O-])C[C@@H]1NC(=O)OCc1ccccc1.[Na+].[Na+]"
  Measurement Name: "rIP"
  Reported Result: 0.35
- Chemical String: "CC(=O)N[C@H]1[C@H]([C@H](O)[C@H](O)CNC(=O)c2ccc(-c3ccc(O)cc3)cc2)O[C@@](OCCCCCC(=O)[O-])(C(=O)[O-])C[C@@H]1NC(=O)OCc1ccccc1.[Na+].[Na+]"
  Measurement Name: "rIP"
  Reported Result: 1.0
- Chemical String: "CC(=O)N[C@H]1[C@H]([C@H](O)[C@H](O)CNC(=O)c2ccc(Oc3ccccc3)cc2)O[C@@](OCCCCCC(=O)[O-])(C(=O)[O-])C[C@@H]1NC(=O)OCc1ccccc1.[Na+].[Na+]"
  Measurement Name: "rIP"
  Reported Result: 0.25
- Chemical String: "COc1ccccc1-c1ccc(C(=O)NC[C@@H](O)[C@@H](O)[C@@H]2O[C@@](OCCCCCC(=O)[O-])(C(=O)[O-])C[C@H](NC(=O)OCc3ccccc3)[C@H]2NC(C)=O)cc1.[Na+].[Na+]"
  Measurement Name: "rIP"
  Reported Result: 0.83
- Chemical String: "CC(=O)N[C@H]1[C@H]([C@H](O)[C@H](O)CNC(=O)c2ccc(-c3ccccc3)cc2)O[C@@](OCCCCCC(=O)[O-])(C(=O)[O-])C[C@@H]1NC(=O)OCc1ccccc1.[Na+].[Na+]"
  Measurement Name: "rIP"
  Reported Result: 1
